Data provenance is patent US12247015B2.

Entries and their hMRGX2 Binding Affinity (pKd) values follow.
Target: human MRGX2 receptor (Homo sapiens (Human), UniProt Q96LB1)
Sequence (Q96LB1 whole entry): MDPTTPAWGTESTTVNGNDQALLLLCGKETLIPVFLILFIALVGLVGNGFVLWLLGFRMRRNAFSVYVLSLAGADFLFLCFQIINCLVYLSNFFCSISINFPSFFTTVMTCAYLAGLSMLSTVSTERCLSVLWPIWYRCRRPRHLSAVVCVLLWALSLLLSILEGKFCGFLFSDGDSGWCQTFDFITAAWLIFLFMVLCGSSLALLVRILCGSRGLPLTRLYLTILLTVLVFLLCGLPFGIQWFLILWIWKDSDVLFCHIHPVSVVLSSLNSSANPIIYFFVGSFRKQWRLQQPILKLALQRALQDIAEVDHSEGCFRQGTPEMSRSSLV
Assay: In vitro radioligand binding assay (Kd)
Conditions: membrane from SF9 cells overexpressing human MRGX2; 3H-labeled ligand; pH 7.4, room temperature, 60 minutes
Value kind: hMRGX2 Binding Affinity (pKd)

INSERT INTO results (mol_smiles, system, value_kind, quantitative_readout) VALUES
  ('CCc1ccc(NC2=NS(=O)(=O)c3cccc(-c4cnn(C)c4)c3N2)cc1', 'human MRGX2 receptor (Homo sapiens (Human), UniProt Q96LB1)', 'hMRGX2 Binding Affinity (pKd)', 6.535),
  ('O=S1(=O)N=C(NCc2ncccc2F)Nc2c(-c3cccc(F)c3Cl)cccc21', 'human MRGX2 receptor (Homo sapiens (Human), UniProt Q96LB1)', 'hMRGX2 Binding Affinity (pKd)', 7.45),
  ('CC(C)c1ccc(NC2=NS(=O)(=O)c3cccc(-c4cnn(C)c4)c3N2)cc1', 'human MRGX2 receptor (Homo sapiens (Human), UniProt Q96LB1)', 'hMRGX2 Binding Affinity (pKd)', 6.52);
